- protocolDescription: Enzyme-coupled assay: transfer of acyl-moieties from MMal-CoA to the ACP
- Type: biochemical
- runConditions: substrate MMal-CoA, acceptor ACP from murine FAS
- Experimental: An enzyme-coupled assay was performed to analyze the transfer of acyl-moieties from CoA to the ACP. Four solutions were prepared as 4× concentrated stocks in the assay buffer. […] The reactions were started by adding solution 4 with the dispenser system of the microplate reader (ClarioStar, BMG labtech). The reaction progress was recorded using the following settings: 348-20 nm; emission: 476-20 nm; gain: 1500; focal height: 11.9 mm; flashes: 17; orbital averaging: off.

{"columns": ["molecule", "Km [µM]"],
 "data": [
  ["Mutant A14: engineered murine acyltransferase, mutations K186E R300D (protein) NKRPLWFICSGMGTQWRGMGLSLMRLDSFRESILRSDEAVKPLGVKVSDLLLSTDERTFDDIVHAFVSLTAIQIALIDLLTSVGLKPDGIIGHSLGEVACGYADGCLSQREAVLAAYWRGQCIKDAHLPPGSMAAVGLSWEECKQRCPAGVVPACHNSEDTVTISGPQAAVNEFVEQLKQEGVFAEEVRTGGLAFHSYFMEGIAPTLLQALKKVIREPRPRSARWLSTSIPEAQWQSSLARTSSAEYNVNNLVSPVLFQEALWHIPEHAVVLEIAPHALLQAVLKRGVKSSCTIIPLMKDDHKDNLEFFLTNLGKVHLT", 218]
]}
